Target: T1, RasGAP SH2-SH3-SH2 construct (residues 174 to 444), R194C (human, UniProt P20936 174-444, R194C | C236S | C261S | C372S | C402S)
T1 sequence: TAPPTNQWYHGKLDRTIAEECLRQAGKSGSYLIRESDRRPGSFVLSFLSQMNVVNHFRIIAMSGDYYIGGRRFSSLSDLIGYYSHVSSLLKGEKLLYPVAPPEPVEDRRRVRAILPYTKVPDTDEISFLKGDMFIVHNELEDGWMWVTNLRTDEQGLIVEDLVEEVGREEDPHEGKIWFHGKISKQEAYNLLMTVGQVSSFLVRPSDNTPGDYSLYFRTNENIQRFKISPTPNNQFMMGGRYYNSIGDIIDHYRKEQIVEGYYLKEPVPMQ
Assay: ITC; replicate, Figure S7 panel E
[ ]: non-standard residue; d: D form. pY = N[C@@H](Cc1ccc(OP(=O)(O)O)cc1)C(=O)O
Measurement Kind: Kd
Answer with the number, then the unit.

// lookup Kd for Ac-DPSD[pY]AEPMDAVVKPRNEEENI[pY]SVPHDS-NH2 (p190RhoGAP (ARHGAP35), UniProt Q9NRY4, residues 1083-1111, 29 amino acids; also called p190RhoGAP peptide; ARHGAP35 peptide; source: synthetic peptide, bought: GenScript) [p190RhoGAP phosphopeptide, residues 1083 to 1111 (pY1087, pY1105)]
1.2 nM
